Provenance of the data: the supplement of paper PMC12855868

B1: library; numbered along this chain (parent)
chain: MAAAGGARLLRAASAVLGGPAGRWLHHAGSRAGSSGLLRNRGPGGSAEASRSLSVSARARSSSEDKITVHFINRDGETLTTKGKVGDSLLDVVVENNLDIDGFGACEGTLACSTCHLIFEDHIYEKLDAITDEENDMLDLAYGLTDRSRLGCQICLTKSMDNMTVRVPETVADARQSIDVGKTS

variants of: B1; experiment: scaled log2 fold change in cell abundance, elesclomol vs control (0 = silent mean, 1 = nonsense mean) (scaled log2 ratio); higher = higher viability under elesclomol (loss of FDX1 cuproptosis function); conditions: with HEK293T FDX1 KO; elesclomol 40 nM; glucose 10 mM; 11 days;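 note: variant abundance is its share of total variant reads in each endpoint sample, from next-generation sequencing of the integrated ORF PCR-amplified out of genomic DNA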
// reported scaled log2 fold change for each item listed

INSERT INTO results (variant_key, result) VALUES
  ('G19A', -0.0193),
  ('G104M', 0.449),
  ('R166C', -0.211);

What value of scaled log2 fold change has been reported for the following variant? S52C
-0.0215

What value of scaled log2 fold change has been reported for the following variant? P168Y
-0.173

What value of scaled log2 fold change has been reported for the following variant? I72G
-0.556

What value of scaled log2 fold change has been reported for the following variant? A174L
0.483

What value of scaled log2 fold change has been reported for the following variant? G86S
0.985

What value of scaled log2 fold change has been reported for the following variant? S34M
0.216

What value of scaled log2 fold change has been reported for the following variant? Q176L
-0.65

What value of scaled log2 fold change has been reported for the following variant? R41L
0.278

What value of scaled log2 fold change has been reported for the following variant? S62F
0.425
